test system: iNOS; test: Specific activity of iNOS in cell-free extracts of RAW 264.7 cells exposed to drug during LPS induction; type: cell-based, murine; conditions: Mus musculus, RAW264.7, read-out: IC50, specific enzyme activity of iNOS
PARAMETER: IC50 (µM)
Respond numerically; units are µM and should not be typed.

Input: Which measured IC50 value corresponds to CC(=O)Oc1ccccc1C(=O)O ?
Output: 3000
